# test: NCI Yeast Anticancer Drug Screen. Data for the mlh1 strain (AID 171);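 further: 0% = growth of vehicle-treated control cultures of the same strain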
# reported_conditions: S. cerevisiae mlh1 strain growth inhibition; at 3.7 µM; active compounds read high
Compounds without any hit were thinned out: in the full panel of roughly 79,000, 15% have a hit.
Each record here notes measured growth inhibition.
Kindly provide the numeric value in % only, without the unit symbol.

Incoming: For the compound OC(c1ccc(Br)cc1)C(Cl)(Cl)Cl (configuration not stated) , give its measured growth inhibition value.
Outgoing: -18

Incoming: Query growth inhibition for COC(=O)c1c(C)ccc2c(O)c3c(cc12)C(=O)c1c2c(cc(O)c1C3=O)C1(C)OC(C)(O2)C(O)C(N(C)C)C1O (configuration not stated)
Outgoing: 19

Incoming: Recall and state the measured growth inhibition for Oc1cccnc1[Se] .
Outgoing: 2

Incoming: Supply recorded growth inhibition for Br[Se]c1ccccn1 here.
Outgoing: 22

Incoming: Recall and state the measured growth inhibition for CCCCN(CCCC)CC(C(C)=O)C(c1ccccc1)c1c(O)c2ccccc2oc1=O (configuration not stated) .
Outgoing: -2

Incoming: Give growth inhibition for the following compound: CNC(=O)ON(C(C)=O)C(=O)NC
Outgoing: -27

Incoming: Item CCCCCCCCCC[Se]C#N : provide growth inhibition
Outgoing: 0

Incoming: Please look at this compound and report its growth inhibition: CCc1cccc(C(C)C)c1NC1=C([n+]2ccc(C)cc2)C(=O)c2ccccc2C1=O
Outgoing: -6

Just for reference, PubChem BioAssay (NCI) is where these values come from.
